tested on: ACHN renal; assay: NCI-60 one-dose screen, 48 h; details: 10 µM unless noted
Compounds without any hit were thinned out: in the full panel of roughly 83,000, 20% have a hit. Active and inactive are the calls of the source. How the source made its calls: active means growth percent below 10; inactive means the rest.
Classes to choose from: active, inactive

Reference set, count: 6
NC(=O)NC(=O)/C=C/C(=O)OCCCl ... inactive
CCn1cc(C2NC(=O)c3cc(F)ccc3N2)c2cccc(Cl)c21 (stereo not given) ... inactive
COc1ccccc1CNCCCN1C(=O)c2ccc3c4c(ccc(c24)C1=O)C(=O)N(CCCNCCCCNCCCCN)C3=O ... inactive
O=C(CSc1nc(-c2ccc(Cl)cc2)cn1-c1ccc(Cl)cc1)c1ccc(Br)cc1 ... inactive
COc1ccc(/C=C/C(=O)/C=C/c2cc3ccc(Cl)cc3[nH]c2=O)cc1 ... inactive
FC(F)(F)c1cccc(-n2nnc3cnc(Nc4ccc(N5CCCCC5)cc4)nc32)c1 ... inactive

Fill in: this test's call for `Clc1ccc([I+]c2ccc(Cl)cc2Cl)c(Cl)c1` is ___ inactive

Fill in: this test's call for `O=S(=O)(NCCNc1cc(-c2cn(-c3ccccc3)nc2-c2ccccc2)ccn1)c1ccc(F)cc1` is ___ inactive

Fill in: this test's call for COc1ccc(/C=C2\CCCC3=C2NC(C)=NC3c2ccc(OC)c(OC)c2)cc1OC (stereo not given) is ___ active

Fill in: this test's call for CC(CCc1ccccc1)NC(=O)c1n[nH]c(=O)c2ccccc12 (stereo not given) is ___ inactive

###

test system: TK-10 renal; assay: NCI-60 one-dose screen, 48 h; conditions: 10 µM unless noted
Compounds without any hit were thinned out: in the full panel of roughly 83,000, 20% have a hit. Active and inactive are the calls of the source. The calls were made as follows: active = growth percent below 10; inactive = the rest.
Classes to choose from: active, inactive

COc1cc(/C=C2\CCCC3=C2N=C2SC(C)=NN2C3c2cc(OC)c(OC)c(OC)c2)cc(OC)c1OC (stereo unspecified) ... inactive
CC(Cc1nnc(SCC(=O)Nc2ccc(I)cc2)n1N)c1ccccc1 (stereo unspecified) ... inactive
COc1ccc(/C=C/C(=O)/C=C/c2cc3ccc(Cl)cc3[nH]c2=O)cc1 ... inactive
CC(C)CCN(CCCNc1c2c(nc3ccccc13)CCCC2)CCC(C)C ... inactive
CC1=CNNc2c3ncnc-3ncn21 ... inactive
CCN(CC)CCCNc1nc(C)cc(Nc2ccc3nc(C)cc(N)c3c2)n1 ... inactive
Cc1cc(Nc2nc(-c3ccc(F)cc3)nc3ccccc23)n[nH]1 ... inactive
Clc1ccc([I+]c2ccc(Cl)cc2Cl)c(Cl)c1 ... active

Fill in: this test's call for CC1(C)OC2COC3(C(=O)O)OC(C)(C)OC3C2O1 (stereo unspecified) is ___ inactive

Fill in: this test's call for `CCn1c(=O)c2c(=O)c3c4c(oc3oc2c2ccccc21)C(=O)c1ccccc1C4=O` is ___ inactive

Fill in: this test's call for `O=S(=O)(O)CCl` is ___ inactive

###

Below, each of the compounds is paired with its reported growth value.
test system: HCC-2998 colon; test: NCI-60 one-dose screen, 48 h (100 = growth as untreated, 0 = no growth, -100 = all killed); conditions: 10 µM unless noted
About 83,000 compounds went through this panel and 20% of them were active in at least one assay; those are over-represented in the sample as a whole.
Respond with the bare value in %.

Using known records, supply growth for `COC(=O)CCCCCCN=Cc1c(O)c(O)c(C(C)C)c2cc(C)c(-c3c(C)cc4c(C(C)C)c(O)c(O)c(C=NCCCCCCC(=O)OC)c4c3O)c(O)c12` 32.6

Using known records, supply growth for `CSc1ccccc1C#C/C=C\C#Cc1ccccc1N1CCCC1=O` 50.2

Using known records, supply growth for `COc1cc(/C=C2\C=C(c3ccc(F)cc3)N(Cc3ccccc3)C2=O)cc(OC)c1OC` 103

Using known records, supply growth for `CN(C)c1nc(N)c(N=O)c(N)n1` 113

Using known records, supply growth for `COc1cccc(-c2nc3sccn3c2-c2ccnc(NCCCNS(=O)(=O)c3ccc(F)cc3)n2)c1` 82.4

Using known records, supply growth for `O=S(=O)(NCCCNc1cc(-c2cn(-c3ccccc3)nc2-c2cccc(O)c2)ccn1)c1cccc(F)c1` 10.3

Using known records, supply growth for `COc1cc(-c2n[nH]nc2-c2ccc3c(c2)OCCO3)cc(OC)c1OC` 10.1
